Test system: Mycolicibacterium smegmatis
assay-remarks: Antibacterial activity against Mycobacterium smegmatis MC2-155 measured after overnight incubation by broth double-dilution method
Assay type: functional
run-parameters: str. MC2 155
Record form. Attribute: log10 of MIC. Fill in for each entry.
Hello, just confirming the data are log10 of MIC with units of µg/mL.

substance-smiles | assay-metric | value-reported
O=c1c2ccccc2sn1C1CCCCCC1 | log10 of MIC | 0.89

Hello, I would appreciate it if you could give log10 of MIC for each entry below.
1. COc1cc(OC)cc(-n2sc3ccccc3c2=O)c1
2. O=c1c2ccccc2sn1CCc1ccccc1
3. CCCCCn1sc2ccccc2c1=O
4. CC(C)CCn1sc2ccccc2c1=O

Result:
0.30
0.30
0.30
0.59

====

Tested on: Staphylococcus aureus
assay-remarks: Antibacterial activity against methicillin-resistant Staphylococcus aureus G1 measured after overnight incubation by broth double-dilution method
Format: functional
assay-metric: MIC (µg/mL)
Give bare numbers, in µg/mL.

Use the examples below as a reference point.
compound | assay-metric | value-reported
CC(C)CCn1sc2ccccc2c1=O | MIC | 2
O=c1c2ccccc2sn1C1CCCCC1 | MIC | 2
NCC[C@H](O)C(=O)N[C@@H]1C[C@H](N)[C@@H](O[C@H]2O[C@H](CN)[C@@H](O)[C@H](O)[C@H]2O)[C@H](O)[C@H]1O[C@H]1O[C@H](CO)[C@@H](O)[C@H](N)[C@H]1O [AMIKACIN] | MIC | 31.3
O=c1c2ccccc2[se]n1-c1ccccc1 [EBSELEN] | MIC | 2
O=c1c2ccccc2sn1-c1ccccn1 | MIC | 7.8
C#Cc1ccc(-n2sc3ccccc3c2=O)cc1 | MIC | 2
CC(C)Cn1sc2ccccc2c1=O | MIC | 3.9
COc1cc(OC)cc(-n2sc3ccccc3c2=O)c1 | MIC | 1

MIC reading for `Cc1cc(C)cc(-n2sc3ccccc3c2=O)c1` : 7.8

====

Test system: Staphylococcus aureus
assay-remarks: Antibacterial activity against methicillin-resistant Staphylococcus aureus G1 measured after overnight incubation by broth double-dilution method
Type: functional
assay-metric: MIC (µg/mL)
One number for each entry, in µg/mL.

Hello, I would appreciate it if you could give MIC for each entry below.
1. O=c1c2ccccc2sn1-c1ccc(Cl)cc1
2. CCCCCCn1sc2ccccc2c1=O
3. O=c1c2ccccc2sn1-c1ccc(Br)cc1

Result:
1: 2; 2: 0.5; 3: 2

====

Tested on: Listeria monocytogenes
assay-remarks: Antibacterial activity against Listeria monocytogenes ATCC 19115 measured after overnight incubation by broth double-dilution method
Type: functional
assay-metric: MIC (µg/mL)
Give bare numbers, in µg/mL.

substance-smiles | unit-label | MIC
O=c1c2ccccc2sn1-c1cccc2ccccc12 | µg/mL | 2

Hello, I would appreciate it if you could give MIC for each entry below.
1. CC(C)c1ccc(-n2sc3ccccc3c2=O)cc1
2. CC(C)c1cccc(-n2sc3ccccc3c2=O)c1
3. CCCCCCn1sc2ccccc2c1=O
4. O=c1c2ccccc2sn1-c1cccc(Br)c1
5. O=c1c2ccccc2sn1-c1ccc(Cl)cc1

Result:
1. 0.5
2. 1
3. 3.9
4. 3.9
5. 1

====

Test system: Staphylococcus aureus
assay-remarks: Antibacterial activity against methicillin-resistant Staphylococcus aureus BRS3 measured after overnight incubation by broth double-dilution method
Type: functional
assay-metric: log10 of MIC (log10 of the value in µg/mL)
Hello, just confirming the data are log10 of MIC with units of µg/mL.

substance-smiles | value-reported
O=c1c2ccccc2sn1CCCc1ccccc1 | 0.59
O=c1c2ccccc2sn1C1CCCCC1 | 0.89
O=c1c2ccccc2sn1C1CCCCCC1 | 0.30
O=c1c2ccccc2sn1-c1ccccn1 | 1.19

Hello, I would appreciate it if you could give log10 of MIC for each entry below.
1. NCC[C@H](O)C(=O)N[C@@H]1C[C@H](N)[C@@H](O[C@H]2O[C@H](CN)[C@@H](O)[C@H](O)[C@H]2O)[C@H](O)[C@H]1O[C@H]1O[C@H](CO)[C@@H](O)[C@H](N)[C@H]1O
2. CCCCCn1sc2ccccc2c1=O
3. O=c1c2ccccc2sn1CCc1ccccc1
4. O=c1c2ccccc2sn1C1CCCCCCC1
5. CCCCCCCCn1sc2ccccc2c1=O

Result:
1: 1.80; 2: 0.59; 3: 0.30; 4: 0.59; 5: 0.00
